Organism: Rattus norvegicus
Assay: Inhibition of bone resorption in rat assessed as phosphate
Format: functional
QUANTITY KIND: LED (µg/kg)
Write the value in µg/kg as a bare number.

q: For O.O=P(O)(O)C(O)(Cn1ccnc1)P(=O)(O)O , what is its reported LED?
a: 0.1

q: For O=P(O)(O)C(O)(CC1CCCCN1)P(=O)(O)O (stereo not given) , what is its reported LED?
a: 1

q: For Cc1cccnc1NC(P(=O)(O)O)P(=O)(O)O , what is its reported LED?
a: 1

q: For CCCCCN(C)CCC(O)(P(=O)(O)O)P(=O)(O)O , what is its reported LED?
a: 0.1

q: For O=P(O)(O)C(O)(Cc1cccnc1)P(=O)(O)O , what is its reported LED?
a: 0.3

q: For NCCCC(O)(P(=O)(O)O)P(=O)(O)O , what is its reported LED?
a: 1

q: For O=P(O)(O)C(Nc1ccccn1)P(=O)(O)O , what is its reported LED?
a: 10

q: For Cc1cccnc1NC(P(C)(=O)O)P(=O)(O)O (stereo not given) , what is its reported LED?
a: 1000

q: For O=C(O)C(O)(Cc1cccnc1)P(=O)(O)O (stereo not given) , what is its reported LED?
a: 300

q: For Cc1cccnc1NCC(P(=O)(O)O)P(=O)(O)O , what is its reported LED?
a: 1000

* * *

Biological target: Farnesyl pyrophosphate synthase (Homo sapiens)
Sequence (P14324 whole entry): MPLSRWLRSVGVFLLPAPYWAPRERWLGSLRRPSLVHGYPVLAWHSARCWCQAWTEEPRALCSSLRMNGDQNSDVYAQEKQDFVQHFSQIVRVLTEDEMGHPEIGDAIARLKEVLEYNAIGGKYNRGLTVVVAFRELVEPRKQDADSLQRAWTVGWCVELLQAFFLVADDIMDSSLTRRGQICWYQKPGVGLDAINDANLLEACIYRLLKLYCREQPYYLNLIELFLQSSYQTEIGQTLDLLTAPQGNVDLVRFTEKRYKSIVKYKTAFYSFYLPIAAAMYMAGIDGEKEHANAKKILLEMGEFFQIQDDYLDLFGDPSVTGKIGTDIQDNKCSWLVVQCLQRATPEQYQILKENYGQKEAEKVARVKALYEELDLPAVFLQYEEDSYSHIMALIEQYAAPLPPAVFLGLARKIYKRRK
Field: label. Allowed values: TRUE (Ki < 90 nM) or FALSE (Ki >= 90 nM).

q: Identify whether the compound Cc1cccnc1NCC(P(=O)(O)O)P(=O)(O)O records Ki below 90 nM.
a: FALSE

q: Identify whether the compound CC1CCCN=C1NC(P(=O)(O)O)P(=O)(O)O (stereo not given) records Ki below 90 nM.
a: TRUE

q: Identify whether the compound O=P(O)(O)C(CC1CCCCN1)P(=O)(O)O (stereo not given) records Ki below 90 nM.
a: FALSE

q: Identify whether the compound O=P(O)(O)C(O)(CC1CCCCN1)P(=O)(O)O (stereo not given) records Ki below 90 nM.
a: FALSE

q: Identify whether the compound Nc1ccccc1CC(O)(P(=O)(O)O)P(=O)(O)O records Ki below 90 nM.
a: TRUE

* * *

QUANTITY KIND: Ki (nM)
Write the value in nM as a bare number.

q: So what Ki did O=P(O)(O)C(O)(CC1CCCCN1)P(=O)(O)O (centres undefined) get with Farnesyl pyrophosphate synthase (Homo sapiens, UniProt P14324)?
a: 1.6

q: So what Ki did O=P(O)(O)C(O)(Cc1ccccn1)P(=O)(O)O get with Farnesyl pyrophosphate synthase (Homo sapiens, UniProt P14324)?
a: 0.74

q: So what Ki did Nc1ccccc1CC(O)(P(=O)(O)O)P(=O)(O)O get with Farnesyl pyrophosphate synthase (Homo sapiens, UniProt P14324)?
a: 3.4

q: So what Ki did O=P(O)(O)C(Cc1ccccn1)P(=O)(O)O get with Farnesyl pyrophosphate synthase (Homo sapiens, UniProt P14324)?
a: 4.45
